Each recorded value in this set is attributed to patent US20120149902A1.

# reported IC50; entries follow
# target.system: purified human recombinant HER2 kinase (Lys676-Val1255, GST fusion) (Homo sapiens, UniProt P04626)
# Construct: human recombinant HER2 kinase (Lys676-Val1255, GST fusion); GST
# Sequence (P04626 676-1255): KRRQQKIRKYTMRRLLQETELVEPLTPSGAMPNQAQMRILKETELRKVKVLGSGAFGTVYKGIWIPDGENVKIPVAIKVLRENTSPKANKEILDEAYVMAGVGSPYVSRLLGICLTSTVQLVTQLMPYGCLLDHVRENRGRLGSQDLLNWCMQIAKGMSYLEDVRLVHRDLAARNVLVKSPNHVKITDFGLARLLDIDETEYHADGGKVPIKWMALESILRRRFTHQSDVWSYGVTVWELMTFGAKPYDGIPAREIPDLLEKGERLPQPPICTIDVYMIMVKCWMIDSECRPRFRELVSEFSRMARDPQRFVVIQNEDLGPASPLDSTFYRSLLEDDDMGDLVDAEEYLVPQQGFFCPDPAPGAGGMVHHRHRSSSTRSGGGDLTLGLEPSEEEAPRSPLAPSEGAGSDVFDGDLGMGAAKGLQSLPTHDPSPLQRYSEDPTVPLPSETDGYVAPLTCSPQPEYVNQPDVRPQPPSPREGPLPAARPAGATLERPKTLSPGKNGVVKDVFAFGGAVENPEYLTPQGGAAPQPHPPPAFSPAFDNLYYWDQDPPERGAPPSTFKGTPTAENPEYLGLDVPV
# assay: HER2 kinase enzyme inhibitory activity (HTRF)
# condition.info: 200 μM ATP, FLT3 analogous peptide substrate, 60 minutes at room temperature

These solved cases illustrate the format of a correct answer.
[
  {
    "compound": "COc1cccc(Nc2ncnc3[nH]cc(CN4CCC(C)(N)CC4)c23)c1",
    "IC50": "< 10 nM"
  },
  {
    "compound": "NC1CCN(Cc2c[nH]c3ncnc(Nc4cccc(Br)c4)c23)CC1",
    "IC50": "< 10 nM"
  }
]

Please report the measured IC50 for `NC1CCN(Cc2c[nH]c3ncnc(Nc4ccc(Cl)c(Cl)c4)c23)CC1`
< 10 nM

Please report the measured IC50 for `C#Cc1cccc(Nc2ncnc3[nH]cc(CN4CCC(NC)CC4)c23)c1`
< 10 nM

Please report the measured IC50 for `CC1(N)CCN(Cc2c[nH]c3ncnc(Nc4ccc5occc5c4)c23)CC1`
10 to 50 nM

Please report the measured IC50 for `C#Cc1cccc(Nc2ncnc3[nH]cc(CN4CCC(C)(N)CC4)c23)c1`
10 to 50 nM

Please report the measured IC50 for `Cc1ccc(Nc2ncnc3[nH]cc(CN4CCC(N)CC4)c23)cc1Br`
< 10 nM

Please report the measured IC50 for `CC1(N)CCN(Cc2c[nH]c3ncnc(Nc4cccc(Br)c4)c23)CC1`
< 10 nM

----------
# target.system: purified human recombinant HER2 kinase (Lys676-Val1255, GST fusion) (Homo sapiens, UniProt P04626)
# Construct: human recombinant HER2 kinase (Lys676-Val1255, GST fusion); GST
# assay: HER2 kinase enzyme inhibitory activity (HTRF)
# condition.info: 200 μM ATP, FLT3 analogous peptide substrate, 60 minutes at room temperature
pIC50: −log10 of the molar value.
observation.type: pIC50

These solved cases illustrate the format of a correct answer.
[
  {
    "compound": "NC1CCN(Cc2c[nH]c3ncnc(Nc4cc(F)cc(Br)c4)c23)CC1",
    "observation.type": "pIC50",
    "result": "7.30 to 8.00"
  },
  {
    "compound": "NC1CCN(Cc2c[nH]c3ncnc(Nc4ccc5[nH]ncc5c4)c23)CC1",
    "observation.type": "pIC50",
    "result": "7.30 to 8.00"
  },
  {
    "compound": "COCC1(N)CCN(Cc2c[nH]c3ncnc(Nc4ccc5occc5c4)c23)CC1",
    "observation.type": "pIC50",
    "result": "7.00 to 7.30"
  },
  {
    "compound": "COCC1(N)CCN(Cc2c[nH]c3ncnc(Nc4cccc(Br)c4)c23)CC1",
    "observation.type": "pIC50",
    "result": "> 8.00"
  },
  {
    "compound": "C[C@@H]1CN(Cc2c[nH]c3ncnc(Nc4ccc(Cl)cc4)c23)CC[C@H]1N (relative stereo)",
    "observation.type": "pIC50",
    "result": "7.00 to 7.30"
  },
  {
    "compound": "C#CCNC1CCN(Cc2c[nH]c3ncnc(Nc4cccc(C#C)c4)c23)CC1",
    "observation.type": "pIC50",
    "result": "> 8.00"
  },
  {
    "compound": "CC1CN(Cc2c[nH]c3ncnc(Nc4ccc(Cl)cc4)c23)CCC1N (single isomer, unassigned; enantiomer 1) [Example 1-22]",
    "observation.type": "pIC50",
    "result": "7.00 to 7.30"
  },
  {
    "compound": "NC1CCN(Cc2c[nH]c3ncnc(Nc4cc(F)c(F)c(F)c4)c23)CC1",
    "observation.type": "pIC50",
    "result": "7.30 to 8.00"
  }
]

Please report the measured pIC50 for `COc1ccc(Nc2ncnc3[nH]cc(CN4CCC(N)CC4)c23)cc1`
≤ 7.00

Please report the measured pIC50 for `CNC1CCN(Cc2c[nH]c3ncnc(Nc4cccc(Br)c4)c23)CC1`
> 8.00

Please report the measured pIC50 for CC1CN(Cc2c[nH]c3ncnc(Nc4ccc(Cl)cc4)c23)CCC1N (single isomer, unassigned; enantiomer 2) [Example 1-23]
≤ 7.00
